Source of measurements: paper PMC6792352

Field: CC50 at 24 h. Provide a value for each of the compounds that follow.
Assay: in vitro
Settings: rat, gh3-tre-luc cells, AC50 (uM) modified / 1000
Structures can show the parent of a compound that is named as a salt.

# return recorded CC50 at 24 h for entry O=C1NCCN1CCO [Hydroxyethyl imidazolidinone]
> 100 µM

Tell me CC50 at 24 h reported for `O=C(Cl)c1c(Cl)c(Cl)c(C(=O)Cl)c(Cl)c1Cl`
> 90 µM

Supply recorded CC50 at 24 h for CC1(C)CC(N)CC(C)(CN)C1 (centres unmarked) here.
> 90 µM

Answer with reported CC50 at 24 h of `O=C(O)C[C@H](O)C[C@H](O)/C=C/c1c(C2CC2)nc2ccccc2c1-c1ccc(F)cc1`
> 50 µM

Provide one value: measured CC50 at 24 h of `COc1cc(C(=O)NC2CCN(C)CC2)ccc1Nc1ncc2c(n1)N(C1CCCC1)CC(F)(F)C(=O)N2C`
1.83 µM

Query CC50 at 24 h for `Nc1ncnc2c1ncn2CCOCP(=O)(O)O`
> 50 µM

Return the recorded CC50 at 24 h value; entry: `CCCOc1ccc2nc(NC(=O)OC)[nH]c2c1`
0.527 µM

// Input: `Nc1ccc([N+](=O)[O-])cc1N` . Output its CC50 at 24 h only.
21.8 µM

Quote CC50 at 24 h reported for `C/C=C/c1ccc(O)c(OC)c1` please.
> 90 µM

Let me know recorded CC50 at 24 h for `CC(C)CCCO` , thanks.
> 90 µM

Give the reported CC50 at 24 h for this compound. `Cc1ccc(N)c(N)c1`
32.1 µM

Consider the compound CC(=O)[C@]1(O)Cc2c(O)c3c(c(O)c2[C@@H](O[C@H]2C[C@H](N)[C@H](O)[C@H](C)O2)C1)C(=O)c1ccccc1C3=O [Idarubicin hydrochloride] . State its measured CC50 at 24 h.
0.162 µM

Give reported CC50 at 24 h value for `COc1cc2c(Nc3ccc(Br)cc3F)ncnc2cc1OCC1CCN(C)CC1`
3.74 µM

Specify measured CC50 at 24 h for CCCCC(CC)CNC(=N)NC(=N)NCCCCCCNC(=N)NC(=N)NCC(CC)CCCC (centres unmarked) [Alexidine dihydrochloride] .
7.36 µM

Return reported CC50 at 24 h. Input compound: CC/C=C\CCOC(=O)C(C)C [(3Z)-Hex-3-en-1-yl 2-methylpropanoate]
> 90 µM

Give the reported value of CC50 at 24 h for this record: `CC(C)(c1ccccc1)c1ccc(Nc2ccc(C(C)(C)c3ccccc3)cc2)cc1`
> 90 µM

Return CC50 at 24 h (reported value) for this compound: `FCOC(C(F)(F)F)C(F)(F)F`
> 50 µM

Complete the entry with CC50 at 24 h for CC(C)=CCC/C(C)=C/CC/C(C)=C/CC/C=C(\C)CC/C=C(\C)CCC=C(C)C [(E)-Squalene]
> 50 µM

// Input: COc1ccc(O)c(C(C)(C)C)c1 [Butylated hydroxyanisole] . Output its CC50 at 24 h only.
> 90 µM

Identify the reported CC50 at 24 h for the following entry. N=C(N)NCC1COC2(CCCCC2)O1 (centres unmarked) [Guanadrel sulfate]
> 20 µM

Give the reported value of CC50 at 24 h for this record: CCN(CC)Cc1cc(Nc2ccnc3cc(Cl)ccc23)ccc1O [Amodiaquin dihydrochloride dihydrate]
13.5 µM

For the compound `Cc1cc(C)c(C)c(O)c1` , give its measured CC50 at 24 h value.
> 90 µM

Answer with reported CC50 at 24 h of CCCN(CC)C(CC)C(=O)Nc1c(C)cccc1C (centres unmarked)
> 50 µM

Tell me its CC50 at 24 h given `C[Si](Cn1cncn1)(c1ccc(F)cc1)c1ccc(F)cc1` as the entry.
> 90 µM

State its CC50 at 24 h: `C=CCOc1c(Br)cc(Br)cc1Br`
> 90 µM

Read off the recorded CC50 at 24 h for COCC(=O)Nc1c(I)c(C(=O)NCC(O)CO)c(I)c(C(=O)N(C)CC(O)CO)c1I (mixture of isomers) [Iopromide]
> 20 µM

Give the reported CC50 at 24 h for this compound. COC(=O)[C@H]1[C@H]2C[C@@H]3c4[nH]c5cc(OC)ccc5c4CCN3C[C@H]2C[C@H](OC)[C@@H]1OC [Metoserpate hydrochloride]
> 50 µM

Quickly give me recorded CC50 at 24 h for `CC[C@]12CCCN3CCc4c(n(c5ccccc45)[C@@](O)(C(=O)OC)C1)[C@@H]32`
65.8 µM

Give a short answer stating reported CC50 at 24 h for `Nc1c2ccccc2nc2ccccc12` .
> 90 µM

Note down CC50 at 24 h recorded for `Cc1ccccn1`
> 90 µM

Complete the entry with CC50 at 24 h for `O=C(O)c1ccccc1[N+](=O)[O-]`
> 90 µM

Write down CC50 at 24 h measured for item O=c1[nH]c2ccc([S+]([O-])CCN3CCC(Cc4ccc(F)cc4)CC3)cc2o1 (centres unmarked)
> 90 µM

Output measured CC50 at 24 h for this item: CC1C(C)(C)C2=C(C(=O)CCC2)C1(C)C (centres unmarked)
> 90 µM

Determine its reported CC50 at 24 h: CC1(C)CCC[C@]2(C)[C@H]3CCO[C@]3(C)CC[C@@H]12 [(-)-Ambroxide]
> 90 µM

Give the measured CC50 at 24 h for `C/C=C/C(=O)CC`
> 20 µM

Using known records, supply CC50 at 24 h for CCN(CC)C(C)CN1c2ccccc2Sc2ccccc21 (centres unmarked) [Ethopropazine hydrochloride]
10.7 µM

Return the recorded CC50 at 24 h value; entry: `CC(C)=C[C@@H]1[C@@H](C(=O)OCc2coc(Cc3ccccc3)c2)C1(C)C`
> 90 µM

State its CC50 at 24 h for this compound: `COc1cc(C(=O)NCCCCCC(=O)O)cc(OC)c1OC`
> 50 µM
